Overview of recorded DR/DR SA for various molecules
- procedure summary: Probe fluorescence ratio response to stearic acid relative to ADIFAB2
- Format: binding
- measurement context: response relative to ADIFAB2
- From the text: In an alternate preferred embodiment, the protein is rI-FABP that has Ala substituted for Leu at position 72 (rI-FABP-L72A) with the resulting probe named ADIFAB2. […] ADIFAB2 also has an altered spectral response, making it especially useful for measurements of FFAu in blood samples (Apple et al, Clinical Proteomics, (2004) 1:41-44, U.S. patent application Ser. No. 10/670,958). […] The baseline value for this ratio, measured in the absence of analyte, is designated R0. […]
Please state the value as a number alone, without comment.

# molecule, readout number
data = [
    ("21Y 78I 102I 72A (protein, listed as Rattus norvegicus, PEPTIDE (1)...(131) wild-type rat intestinal fatty acid binding protein) AFDGTWKVDRNENYEKFMEKYGINVVKRKLGAHDNLKLTITQEGNKFTVKESSNFRNIDVVFELGVDFAYSAADGTEITGTWTMEGNKLVGKFKRVDNGKEIIAVREISGNELIQTYTYEGVEAKRIFKKE", 2.774),
    ("21W 78A 102V 72A (protein, listed as Rattus norvegicus, PEPTIDE (1)...(131) wild-type rat intestinal fatty acid binding protein) AFDGTWKVDRNENYEKFMEKWGINVVKRKLGAHDNLKLTITQEGNKFTVKESSNFRNIDVVFELGVDFAYSAADGTEATGTWTMEGNKLVGKFKRVDNGKEVIAVREISGNELIQTYTYEGVEAKRIFKKE", 3.092),
    ("18I 31I 55M 73I 72A (protein, listed as Rattus norvegicus, PEPTIDE (1)...(131) wild-type rat intestinal fatty acid binding protein) AFDGTWKVDRNENYEKFIEKMGINVVKRKLIAHDNLKLTITQEGNKFTVKESSNMRNIDVVFELGVDFAYSAIDGTELTGTWTMEGNKLVGKFKRVDNGKELIAVREISGNELIQTYTYEGVEAKRIFKKE", 0.382),
    ("38Y 74F 72A (protein, listed as Rattus norvegicus, PEPTIDE (1)...(131) wild-type rat intestinal fatty acid binding protein) AFDGTWKVDRNENYEKFMEKMGINVVKRKLGAHDNLKYTITQEGNKFTVKESSNFRNIDVVFELGVDFAYSAAFGTELTGTWTMEGNKLVGKFKRVDNGKELIAVREISGNELIQTYTYEGVEAKRIFKKE", 0.362),
]

Then this molecule:
Data request, read-out DR/DR SA, for 18I 31L 55L 72A (protein, listed as Rattus norvegicus, PEPTIDE (1)...(131) wild-type rat intestinal fatty acid binding protein) AFDGTWKVDRNENYEKFIEKMGINVVKRKLLAHDNLKLTITQEGNKFTVKESSNLRNIDVVFELGVDFAYSAADGTELTGTWTMEGNKLVGKFKRVDNGKELIAVREISGNELIQTYTYEGVEAKRIFKKE 0.310

Hey, just so you know, these numbers are from patent US20060257938A1.
